The compounds listed here are annotated with their normalized growth.
- TEST_DETAILS: chemical genetic growth profiling, strain panel (AID 1159580);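 note: tested at 20 µM; growth read once vehicle control cultures reached saturation at 30 °C; 1 = growth at the plate median or of vehicle wells; lower values mean less growth of the strain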
- CONDITION_DETAILS: S. cerevisiae deletion strains, growth OD, locus YLR262C, strain YPT6, hits give low values
The campaign covered roughly 5,500 compounds. About 2,000 (36%) were called active. About 18% were inconclusive and are not listed. The list shows a part of the results.
Quick one: just the number, no unit, thanks!

Use the examples below as a reference point.
> print(dat)
                                   compound  endpoint.value
1       Nc1ccc(S(=O)(=O)Nc2cnc3ccccc3n2)cc1           0.964
2  Cc1cn([C@H]2C[C@H](N=[N+]=[N-])[C@@H](CO)O2)c(=O)[nH]c1=O            1.01
3               Cc1cc(C2=CSC3=NCCN23)ccc1Cl            1.03

Fill in the blank: the reported normalized growth of CC(=O)/C=C\[C@@H]1[C@@]2(C)CCCC(C)(C)C2CC[C@@]1(C)O (some centres not stated) is ____.
0.843

Endpoint output: normalized growth of Nc1c2ccccc2nc2ccccc12 (tested in a mixture with another compound) . Value?
0.604

# normalized growth lookup, item COc1ccc(Oc2cc(C)nc3ccccc23)cc1
0.701

Would you kindly share the measured normalized growth for NNc1nncc2ccccc12 ?
1.07

Could you tell me which normalized growth is on file for O=C(CSCc1c(F)cccc1Cl)Nc1ccc(F)c(Cl)c1 ?
0.595

Would you mind telling me what normalized growth value was observed for Cc1cc(O)ccc1Cl ?
0.904

Which normalized growth is reported for this compound? CCCOc1ccccc1-c1nc2n[nH]nc2c(=O)[nH]1
1.02

Any idea what its normalized growth is? The compound is N#C/C(NCc1cccs1)=C(\C#N)NCc1c(F)cccc1Cl
0.969

Sample Cc1cc(O)cc(=O)o1 — what was its normalized growth?
1.04

====

- TEST_DETAILS: chemical genetic growth profiling, strain panel (AID 1159580);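 note: tested at 20 µM; growth read once vehicle control cultures reached saturation at 30 °C; 1 = growth at the plate median or of vehicle wells; lower values mean less growth of the strain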
- CONDITION_DETAILS: S. cerevisiae deletion strains, growth OD, locus YAL030W, strain snc1
Hit rate of the full screen: of about 5,500 compounds, about 2,000 (36%) were called active. Inconclusive results (about 18%) are left out. Cut-off read from the data, not from the text of the source: active = normalized growth mostly below about 0.91 (no sharp cut-off); inconclusive = no clear call, values can overlap the other calls; inactive = mostly above about 0.92. The list shows a part of the results.
Lab note: assign the record to one of active, inactive

Some solved entries appear below for comparison.
MOLECULE	LABEL_VALUE
O=C1C(O)=C(O)C(=O)C(O)=C1O	inactive
COC(=O)C[C@H]1C(C)(C)C(=O)[C@@H]2CC3C4=CC(=O)O[C@@H](c5ccoc5)[C@]4(C)CCC3[C@@]1(C)C2=O (some centres undefined)	inactive
CC1=NS(=O)(=O)c2cc(Cl)ccc2N1	inactive
Cc1cc(O)cc(O)c1C(=O)O	inactive

Consider now this further molecule.
What is the recorded call for this molecule in the test? C/C=C(/C)C(=O)O[C@@H]1[C@H](OC(C)=O)[C@@]2(CO)C(CC1(C)C)C1=CCC3[C@@]4(C)CC[C@H](O[C@@H]5O[C@H](C(=O)O)[C@@H](O[C@@H]6O[C@H](CO)[C@@H](O)[C@H](O)[C@H]6O)[C@H](O)[C@H]5O[C@@H]5O[C@H](CO)[C@@H](O)[C@H](O)[C@H]5O)[C@](C)(CO)C4CC[C@@]3(C)[C@]1(C)C[C@H]2O (some centres undefined)
inactive
